system: A549 NSCLC; assay: NCI tumour cell line growth inhibition, 48 h
Measured Quantity: TGI

Worked cases, answers included:
O=C1c2ccccc2C(=O)N1/N=C1/SC(=Nc2ccccc2)C(=Nc2ccccc2)N1c1ccccc1 :: > 100 µM
O=C(O)/C=C\C(=O)Nc1ccc2c(c1)-c1ccccc1C2 :: > 100 µM
CC(C)(C)C(=O)/C=C(\OB(F)F)C(C)(C)C :: > 100 µM
C=CC1(C)CCC2C(=CCC3C2(C)CC(O)C(O)C3(C)COC2OC(CO)C(O)C(O)C2O)C1 (stereo not given) :: > 100 µM
COC(=O)[C@@H](C)C[C@H](Cc1ccccc1)NC(=O)c1nc([C@@H](C[C@H](C(C)C)N(C)C(=O)[C@@H](NC(=O)[C@H]2C[C@H](O)CCN2C)C(C)C)OC(C)=O)sc1C(C)C :: > 11.1 µM

Ask | Please tell me: TGI of COc1nc(NC2OC(COC(C)=O)C(OC(C)=O)C(OC(C)=O)C2OC(C)=O)c(N=CC=Nc2c(NC3OC(COC(C)=O)C(OC(C)=O)C(OC(C)=O)C3OC(C)=O)nc(OC)[nH]c2=O)c(=O)[nH]1 (stereo not given) , system A549 NSCLC?
Reply | > 100 µM

Ask | Query C=CCN1C(=O)CC2[C@@H]3CCc4cc(O)ccc4C3CC[C@]2(C)C1=O (stereo not given in full) next
Reply | > 10 µM

---

# TGI per record follows
system: SF-268 CNS; test: NCI tumour cell line growth inhibition, 48 h

Worked cases, answers included:
N#CC(C#N)=c1c(=O)c2c3ccccc3cc3cccc1c32 :: > 100 µM
CC1CCCCCC(=O)c2c(O)cc(O)cc2CC(=O)O1 (stereo not given) :: > 100 µM

# context switch: different molecule, same TGI
Ask | Please tell me: TGI of NC(Cc1ccc(CP(=O)(O)O)cc1)C(=O)O (stereo not given) , system SF-268 CNS?
Reply | > 100 µM

---

test system: U251 CNS; assay: NCI tumour cell line growth inhibition, 48 h
Measured Quantity: TGI

Worked cases, answers included:
O=c1nc2n(-c3cccc(Cl)c3)c3ccc([N+](=O)[O-])cc3cc-2c(=O)[nH]1 :: > 25 µM
COc1cccc2c1C(=O)c1c(O)c3c(c(O)c1C2=O)C[C@@](O)(C(=O)CO)CC3OC1CC(N(C)CCOCC(OC(C)=O)OC(C)=O)C(O)C(C)O1 (some centres undefined) :: > 0.01 µM
N#CC(C(=O)CCCC(=O)Nc1ccccc1[N+](=O)[O-])c1c(Cl)cccc1Cl (centres undefined) :: > 100 µM
O=C(O)/C=C\C(=O)Nc1ccc2c(c1)-c1ccccc1C2 :: > 100 µM
CCC(=C(c1ccc(OCCN2CCCCC2)cc1)c1ccc(OCCN2CCCCC2)cc1)c1ccc(Cl)cc1 :: > 16.7 µM

Ask | Name the recorded TGI for C=CC(=O)NCCC(=O)OCn1cc(F)c(=O)[nH]c1=O .
Reply | > 100 µM

Ask | Query CN(C)CCC(N)(P(=O)([O-])[O-])P(=O)([O-])[O-].N.N.[Pt+2] next
Reply | > 100 µM

Ask | Query Cc1cn2cc(-c3cccs3)nc2s1 next
Reply | > 100 µM

Ask | Query CCCCNC(=O)OCCN=c1c2ccccc2ccc2ccccc12 next
Reply | > 100 µM
